The reported measurements were obtained from patent US6534503B1.

biological target: MC-4 (Homo sapiens); test: cAMP assay for melanocortin receptors, HEK 293 cells expressing MC-4; settings: concentration for 50% of the maximum increase by that ligand
Sequence (P32245 whole entry): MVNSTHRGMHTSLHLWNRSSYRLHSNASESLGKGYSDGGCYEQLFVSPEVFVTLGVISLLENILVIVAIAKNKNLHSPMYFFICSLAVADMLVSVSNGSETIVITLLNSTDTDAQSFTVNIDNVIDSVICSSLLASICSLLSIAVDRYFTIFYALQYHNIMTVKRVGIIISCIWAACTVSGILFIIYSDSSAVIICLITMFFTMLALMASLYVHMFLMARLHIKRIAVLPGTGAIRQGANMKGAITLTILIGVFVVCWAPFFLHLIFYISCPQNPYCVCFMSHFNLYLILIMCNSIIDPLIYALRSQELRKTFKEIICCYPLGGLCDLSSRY
Quantity: EC50 (µM)

Would you please look over these solved cases?
1. CC(C)c1ccc(-c2nc3cc(C(=O)N(CCc4ccccc4)Cc4ccccc4)ccc3n2C(CCCNC(=N)N)C(N)=O)cc1 (stereo not shown) [Compound D]	2.8
2. CC(C)(C)c1ccc(-c2nc3cc(C(=O)N4CC=C(c5ccc(Cl)cc5)CC4)ccc3n2[C@@H](CCCNC(=N)N)C(N)=O)cc1 [Compound K]	0.08
3. CC(C)(C)c1ccc(-c2nc3cc(C(=O)NC(Cc4ccccc4)c4ccccc4)ccc3n2C(CCCNC(=N)N)C(N)=O)cc1 (stereo not shown) [Compound E]	19.9
4. CC(C)(C)c1ccc(-c2nc3cc(C(=O)N(CCc4ccccc4)Cc4cccnc4)ccc3n2[C@@H](CCCNC(=N)N)C(N)=O)cc1 [Compound L]	6.35
5. CC(C)c1ccc(-c2nc3cc(C(=O)NC(Cc4ccccc4)c4ccccc4)ccc3n2C(CCCNC(=N)N)C(N)=O)cc1 (stereo not shown) [Compound C]	10.6

A. CCCCCc1ccc(-c2nc3cc(C(=O)N(CCc4ccccc4)Cc4ccccc4)ccc3n2[C@@H](CCCNC(=N)N)C(N)=O)cc1 [Compound N]
B. CCCCOc1ccc(-c2nc3cc(C(=O)NC(Cc4ccccc4)c4ccccc4)ccc3n2C(CCCNC(=N)N)C(N)=O)cc1 (stereo not shown) [Compound B]
Between A and B , which one has the lower reported EC50 value? Your answer should be the label of the entry you select. A
(A: 5.9 µM, B: 12 µM)
